Provenance of the data: patent US20180022822A1

ASSAY_SYSTEM: T1, transmembrane human FAP on FAP expressing HEK293 cells (Homo sapiens, UniProt Q12884)
T1 construct: HEK293 cells were transduced with retrovirus encoding full length human FAP cDNA; host or cells: HEK293 (retroviral transduction, G418 selected)
T1 sequence (Q12884 1-760): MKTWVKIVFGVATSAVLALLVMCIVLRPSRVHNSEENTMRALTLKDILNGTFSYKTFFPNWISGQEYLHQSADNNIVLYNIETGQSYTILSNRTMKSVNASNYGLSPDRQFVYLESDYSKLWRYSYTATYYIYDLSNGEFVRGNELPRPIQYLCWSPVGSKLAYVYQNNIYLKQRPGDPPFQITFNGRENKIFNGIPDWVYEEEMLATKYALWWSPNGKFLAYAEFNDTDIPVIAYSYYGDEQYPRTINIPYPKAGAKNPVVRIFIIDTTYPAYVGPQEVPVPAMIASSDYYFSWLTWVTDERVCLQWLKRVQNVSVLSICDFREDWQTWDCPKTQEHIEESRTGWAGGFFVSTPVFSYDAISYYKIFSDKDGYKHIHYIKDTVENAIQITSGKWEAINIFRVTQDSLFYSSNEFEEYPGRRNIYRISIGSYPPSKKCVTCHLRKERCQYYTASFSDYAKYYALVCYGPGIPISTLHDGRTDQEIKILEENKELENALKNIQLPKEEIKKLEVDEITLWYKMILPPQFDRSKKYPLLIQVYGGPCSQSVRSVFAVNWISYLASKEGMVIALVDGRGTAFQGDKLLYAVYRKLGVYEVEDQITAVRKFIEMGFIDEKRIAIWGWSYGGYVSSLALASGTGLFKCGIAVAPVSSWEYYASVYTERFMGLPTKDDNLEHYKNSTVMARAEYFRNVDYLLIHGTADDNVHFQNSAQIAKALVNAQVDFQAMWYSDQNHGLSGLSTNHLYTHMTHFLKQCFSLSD
PROTOCOL: flow cytometry of Cy5 labelled antibodies on FAP-HEK293 cells in pH adjusted PBS
Type: cell-based
MEASUREMENT_CONTEXT: pH 7.4 to 6.2; 0.1-100 nM Cy5 labelled antibody
Procedure: To evaluate the binding of NI-206.82C2, NI-206.59B4, NI-206.27E8, NI-206.12G4, NI-206.18H2 and NI-206.6D3 to transmembrane human FAP, an FAP expressing HEK293 cell line was received from the National Institutes of Health, Bethesda, Md. […] To analyze antibody binding, fluorescent activated flow cytometry was performed using a BD Fortesa device for forward scatter, side scatter, and the mean fluorescent intensity (MFI) of the Cy5 channel was recorded using a […] laser excitation and 600/20 filter. […]
MEASURED_METRIC: paratope-specific avidity (ΔMFI) under acidic conditions vs. at pH 7.4

[
  {
    "MOLECULE": "NI-206.59B4: human-derived recombinant anti-FAP antibody; VH SEQ ID NO: 8, VL SEQ ID NO: 10 (antibody, listed as Homo sapiens, V domains shown) VH: QVQLVQSGAEVKKPGASVKVSCKTSGYTFTDYYIHWVRQAPGQGLEWMGWINPNRGGTNYAQKFQGRVTMTRDTSIATAYMELSRLRSDDTAVYYCATASLKIAAVGTFDCWGQGTLVTVSS VL: SYELTQPPSVSVSPGQTARITCSGDALSKQYAFWFQQKPGQAPILVIYQDTKRPSGIPGRFSGSSSGTTVTLTISGAQADDEADYYCQSADSSGTYVFGTGTKVTVL",
    "RESULT": "increased"
  },
  {
    "MOLECULE": "NI-206.18H2: human-derived recombinant anti-FAP antibody; VH SEQ ID NO: 41, VL SEQ ID NO: 43 (antibody, listed as Homo sapiens, V domains shown) VH: QVQLQESGPRLVKPSETLSLTCTVSGYSISNGYYWGWIRQPPGQGLEWIASVWHSGNTYHNPSLKSRVTILVDTLKNQFSLNLKSVTAADTALYYCARSYTRNDVGAFETWGQGTMVTVSS VL: SYELTQPPSVSVSPGQTARIACSGDELPKRYAYWYQQKSGQAPVLVMYEDTKRPSGIPERLSGSSSGTVTTLTISGAQVEDEADYYCYSTAPSGNHTFVFGTGTRVTVL",
    "RESULT": "increased"
  },
  {
    "MOLECULE": "NI-206.82C2: human-derived recombinant anti-FAP antibody; VH SEQ ID NO: 2 or 4 (PIMC), VL SEQ ID NO: 6 (antibody, V domains shown) VH: QVQLQQSGPGLVKPSQTLSLTCAISGDSVSSNSVTWNWIRQSPSRGLEWLGRTYYRSKWYNDYAVSVKGRITINPDTSKNQFYLQLKSVTPEDAAVYYCARDSSILYGDYWGQGTLVTVSS VL: QAVLTQPSSLSASPGASASLTCTLPSGINVGTYRIFWFQQKPGSPPQYLLSYKSDSDNHQGSGVPSRFSGSKDASANAGILLISGLQSEDEADYYCMIWHSSAWVFGGGTKLTVL",
    "RESULT": "increased"
  }
]
